target: SpsB (Staphylococcus aureus signal peptidase) (Staphylococcus aureus, UniProt P0A070); construct: This assay uses a suspension of Staphylococcus aureus cells as a source of SpsB instead of recombinant SpsB protein; endogenous in cells; host or cells: S. aureus, USA300 background, overexpressing SpsB (whole-cell suspension from frozen pellets); assay: cell-based; format: biochemical; conditions: SpsB IC50, whole-cell S. aureus (USA300 background, overexpressing SpsB) as SpsB source; fluorogenic peptide substrate, kinetic read 30 min
Sequence (P0A070 whole entry): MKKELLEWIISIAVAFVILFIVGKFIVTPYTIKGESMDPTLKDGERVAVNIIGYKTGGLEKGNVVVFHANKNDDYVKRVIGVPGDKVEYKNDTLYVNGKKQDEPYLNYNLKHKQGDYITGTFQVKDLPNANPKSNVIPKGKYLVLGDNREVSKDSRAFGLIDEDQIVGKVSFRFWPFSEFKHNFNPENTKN
OBSERVATION_TYPE: IC50 (nM)
Numbers only here, please. The scale is nM.

Cc1cc(-c2ncc(CC(C)C)cn2)ccc1C(=O)N[C@@H](CCN)C(=O)N(C)[C@@H]1C(=O)N[C@@H](C)C(=O)N[C@H](C(=O)NCC#N)Cc2ccc(OCCN)c(c2)-c2cc1ccc2OCCN [Compound 174] ... 0.91

Q: Param readout = IC50; param system = SpsB (Staphylococcus aureus signal peptidase) (Staphylococcus aureus, UniProt P0A070); param query = CCCCCCCOc1ccc(C(=O)N[C@@H](CCCN)C(=O)N(C)[C@@H]2C(=O)N[C@@H](C)C(=O)N[C@H](C(=O)NCC#N)Cc3ccc(OCCN)c(c3)-c3cc2ccc3OCCN)c(C)c1 [Compound 281] ; response: value
Result: 0.75

###

List of MIC values.
system: Escherichia coli ATCC 25922; test: Minimum inhibitory concentration, broth micro-dilution (CLSI), E. coli; type: cell-based; settings: Escherichia coli, ATCC25922, 22 h, read-out: MIC (μg/mL) E. coli
I only need the number, in µg/mL, no unit after it.

CCCCCCCCc1ccc(C(=O)N[C@@H](CCN)C(=O)N(C)[C@@H]2C(=O)N[C@@H](C)C(=O)N[C@H](C(=O)NCC#N)Cc3ccc(OCCN)c(c3)-c3cc2ccc3OCCN)c(/C=C/C(=O)O)c1 ... 64
CCCCc1ccc(-c2ccc(C(=O)N[C@@H](CCCN)C(=O)N(C)[C@@H]3C(=O)N[C@@H](C)C(=O)N[C@H](C(=O)N4CC4C#N)Cc4ccc(OCCN)c(c4)-c4cc3ccc4OCCN)cc2)cc1 (stereo partly shown) ... 6
Cc1nc(-c2ccc([Si](C)(C)C)cc2)ncc1C(=O)N[C@@H](CCN)C(=O)N(C)[C@@H]1C(=O)N[C@@H](C)C(=O)N[C@H](C(=O)NCC#N)Cc2ccc(OCCN)c(c2)-c2cc1ccc2OCCN ... 0.13
CCCCCCCc1ccc(C(=O)N(C)[C@@H](CCN)C(=O)N(C)[C@@H]2C(=O)N[C@@H](C)C(=O)N[C@H](C(=O)NCC#N)Cc3ccc(OCCN)c(c3)-c3cc2ccc3OCCN)cc1 ... 16

Q: Request the reported MIC associated with Cc1nc(-c2ccc(C(C)(C)C)cc2)ncc1C(=O)N[C@@H](CCCN)C(=O)N(C)[C@@H]1C(=O)N[C@@H](C)C(=O)N[C@H](C(=O)NCC#N)Cc2ccc(OCCN)c(c2)-c2cc1ccc2OCCN
Result: 0.19

Q: Also, Cc1cc(-n2cccn2)ccc1C(=O)N[C@@H](CCN)C(=O)N(C)[C@@H]1C(=O)N[C@@H](C)C(=O)N[C@H](C(=O)NCC#N)Cc2ccc(OCCN)c(c2)-c2cc1ccc2OCCN please.
Result: 16

Q: Try CCCCCCCCCCCC(=O)N[C@@H](CO)C(=O)N(C)[C@@H]1C(=O)N[C@@H](C)C(=O)N[C@H](C(=O)N[C@H](C#N)CC)Cc2ccc(OCCN)c(c2)-c2cc1ccc2OCCN next.
Result: 32
